- assay remarks: inhibitors of CD8+ T cell-vesicle binding, pilot screen, LFA-1/ICAM-1 modulator project, MLPCN validation set, flow cytometry (AID 2523);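 also: mean PE anti-B7-1 fluorescence of CD8+ cells relative to row control; 100% = QL9-loaded vesicles with DMSO vehicle in the same plate row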
- test parameters: 2C mouse CD8+ T cells, at 7 µM, stronger effect = lower value
// NB: equality with 200% counts as False; only vesicle binding response strictly below is True

{"compound": "C#CCN(C)Cc1ccccc1", "label": "False"}
{"compound": "CCN(CC)CCNc1ccc(CO)c2sc3ccccc3c(=O)c12", "label": "False"}
{"compound": "COc1ccc2c(c1OC)C(=O)NC(C)=C(C(=O)OC(C)(C)C)C2O (stereo not given)", "label": "True"}
{"compound": "N=c1ccn(CC(=O)NC(N)=O)c2ccccc12", "label": "False"}
{"compound": "COc1ccc(C2NC(=O)c3ccccc3N2)cc1OC (stereo not given)", "label": "True"}

* * *

- assay remarks: modulators of MEP2-GFP levels in yeast, confirmation, S. cerevisiae, flow cytometry GFP, cherry picks (AID 2272);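 also: ratio of well signal to plate DMSO mean so 100% equals DMSO level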
- test parameters: S. cerevisiae MEP2-GFP strain, 3 h, at 10 µM, stronger effect = higher value
# GFP response vs DMSO per record follows

{"molecule": "Cc1cc(NC(=O)c2cncc(Br)c2)ccc1NC(=O)c1cc2ccccc2o1", "readout unit": "%", "GFP response vs DMSO": 109}
{"molecule": "C=CCn1c(C)c(/C=C/c2cc[n+](C)cc2)c2ccccc21", "readout unit": "%", "GFP response vs DMSO": 147}
{"molecule": "Oc1ccccc1/C=N/c1c(-c2ccco2)nc2ccccn12", "readout unit": "%", "GFP response vs DMSO": 100}
{"molecule": "O=C(Nc1ccc(NC(=O)c2cc3ccccc3o2)cc1)c1ccco1", "readout unit": "%", "GFP response vs DMSO": 101}
{"molecule": "O=C(COc1ccccc1)Nc1c2c(nn1-c1ccccc1)CS(=O)C2 (centres undefined)", "readout unit": "%", "GFP response vs DMSO": 103}
{"molecule": "CCCN1CCc2c(sc(NC(=S)NC(=O)c3ccccc3)c2C#N)C1", "readout unit": "%", "GFP response vs DMSO": 187}
{"molecule": "O=S(=O)(Nc1ccc(Br)cc1)c1cccc2nonc12", "readout unit": "%", "GFP response vs DMSO": 99.5}
{"molecule": "COc1ccc(-c2cc(=O)n(-c3nc4ccccc4[nH]3)[nH]2)cc1", "readout unit": "%", "GFP response vs DMSO": 103}
{"molecule": "COc1ccc(-c2[nH]ncc2N=Nc2ccccc2)cc1", "readout unit": "%", "GFP response vs DMSO": 94.4}

* * *

- assay remarks: RPL19A-GFP modulators in TOR pathway yeast, confirmation, cell-based, S. cerevisiae, flow cytometry, second cherry pick (AID 2623);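 also: median GFP channel fluorescence per well over the all cells gate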
- test parameters: S. cerevisiae RPL19A-GFP strain, 3 h, at 10 µM, stronger effect = lower value, 100% means same as DMSO wells
This is one part of the list.

{"compound": "CCCn1nc(C(=O)NNC(=O)CCOc2ccccc2OCC)c2ccccc2c1=O", "GFP response vs DMSO, %": 102}
{"compound": "CC(Oc1ccc2ccccc2c1)C(=O)NNC(=S)NC(=O)c1ccco1 (centres undefined)", "GFP response vs DMSO, %": 101}
{"compound": "Clc1cccc(CN2COc3c(cc(Cl)c4cccnc34)C2)c1", "GFP response vs DMSO, %": 101}
{"compound": "CCc1nnc(SCc2cccc(F)c2)nc1CC", "GFP response vs DMSO, %": 95.5}
